Hi there, I'd appreciate the recorded IC50 for every entry that follows.
Biological target: recombinant human Vps34 (Homo sapiens, UniProt Q8NEB9)
Sequence (Q8NEB9 whole entry): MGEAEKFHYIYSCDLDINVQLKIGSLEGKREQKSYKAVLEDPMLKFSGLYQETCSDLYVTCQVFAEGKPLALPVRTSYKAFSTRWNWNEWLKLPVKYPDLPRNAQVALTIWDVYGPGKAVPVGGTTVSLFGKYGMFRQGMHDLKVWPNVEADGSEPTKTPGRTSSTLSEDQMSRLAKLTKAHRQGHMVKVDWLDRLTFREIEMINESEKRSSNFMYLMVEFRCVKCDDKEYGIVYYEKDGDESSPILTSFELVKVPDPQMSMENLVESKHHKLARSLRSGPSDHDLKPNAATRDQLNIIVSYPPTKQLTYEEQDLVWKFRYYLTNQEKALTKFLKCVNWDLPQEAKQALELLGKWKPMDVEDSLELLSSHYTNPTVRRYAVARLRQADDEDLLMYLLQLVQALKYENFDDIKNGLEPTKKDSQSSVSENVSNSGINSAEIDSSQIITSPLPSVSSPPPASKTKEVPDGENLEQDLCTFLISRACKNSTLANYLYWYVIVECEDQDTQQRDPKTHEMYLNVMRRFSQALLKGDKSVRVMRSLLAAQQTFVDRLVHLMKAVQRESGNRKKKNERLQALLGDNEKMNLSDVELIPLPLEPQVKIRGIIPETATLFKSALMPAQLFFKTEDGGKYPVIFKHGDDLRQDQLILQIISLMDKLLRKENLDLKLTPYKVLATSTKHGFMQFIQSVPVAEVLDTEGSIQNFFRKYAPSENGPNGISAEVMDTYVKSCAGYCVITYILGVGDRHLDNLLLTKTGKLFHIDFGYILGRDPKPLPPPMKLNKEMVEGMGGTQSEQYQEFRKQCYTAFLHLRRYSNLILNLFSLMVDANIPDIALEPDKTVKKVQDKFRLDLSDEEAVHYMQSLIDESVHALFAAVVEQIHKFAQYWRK
Experiment: Vps34 KinaseGlo assay
Type: biochemical
Settings: KinaseGlo luminescence ATP detection; PI/OG substrate; 1 μM ATP; room temperature; 8 concentrations, n=2
Answer in nM, number only, no unit symbol.

Challenge: Specify IC50 for CC(=O)N[C@H]1CC[C@H](Nc2nccc(-c3cnc(N)nc3CC3CC3)n2)CC1 [Example 15a] and stop.
Response given: 577

Challenge: Specify IC50 for CC(CO)Nc1ncc(-c2ccnc(Nc3ccncc3)n2)c(CC2CC2)n1 (stereo not drawn) [Example 10o] and stop.
Response given: 31.5

Challenge: Specify IC50 for Nc1ncc(-c2ccnc(Nc3ccc(F)cc3)n2)c(CC2CC2)n1 [Example 15j] and stop.
Response given: 53

Challenge: Specify IC50 for COCCNc1ncc(-c2ccnc(Nc3ccncc3)n2)c(CC2CC2)n1 [Example 10n] and stop.
Response given: 31

Challenge: Specify IC50 for CNc1ncc(-c2ccnc(NC3CCC3)n2)c(CC2CC2)n1 [Example 14f] and stop.
Response given: 722

Challenge: Specify IC50 for CNc1ncc(-c2ccnc(Nc3cc(OC)cc(OC)c3)n2)c(CC2CC2)n1 [Example 14p] and stop.
Response given: 5170

Challenge: Specify IC50 for CC(O)CNc1ncc(-c2ccnc(Nc3ccncc3)n2)c(CC2CC2)n1 (stereo not drawn) [Example 10j] and stop.
Response given: 29

Challenge: Specify IC50 for Nc1ncc(-c2ccnc(Nc3ccncc3)n2)c(C(F)(F)F)n1 [Example 22] and stop.
Response given: 31

Challenge: Specify IC50 for CNc1ncc(-c2ccnc(NC3CCCCC3)n2)c(CC2CC2)n1 [Example 14e] and stop.
Response given: 1100

Challenge: Specify IC50 for CC(C)CNc1ncc(-c2ccnc(Nc3ccncc3)n2)c(CC2CC2)n1 [Example 10d] and stop.
Response given: 72

Challenge: Specify IC50 for CNc1ncc(-c2ccnc(Nc3ccncc3)n2)c(CC2CC2)n1 [Example 14c] and stop.
Response given: 37

Challenge: Specify IC50 for CC(C)(O)CNc1ncc(-c2ccnc(Nc3ccc(S(C)(=O)=O)cc3)n2)c(CC2CC2)n1 [Example 16d] and stop.
Response given: 26

Challenge: Specify IC50 for CNc1ncc(-c2ccnc(N[C@H]3CC[C@H](OC)CC3)n2)c(CC2CC2)n1 [Example 14o] and stop.
Response given: 374

Challenge: Specify IC50 for N#Cc1ccc(Nc2nccc(-c3cnc(N)nc3CC3CC3)n2)cc1 [Example 15x] and stop.
Response given: 27

Challenge: Specify IC50 for CC(C)(C)Nc1ncc(-c2ccnc(Nc3ccncc3)n2)c(CC2CC2)n1 [Example 10i] and stop.
Response given: 35

Challenge: Specify IC50 for CCc1ncc(-c2ccnc(N[C@H]3CC[C@H](O)CC3)n2)c(CC2CC2)n1 [Example 6d] and stop.
Response given: 728

Challenge: Specify IC50 for Nc1ncc(-c2ccnc(NC3CCCOC3)n2)c(CC2CC2)n1 (stereo not drawn) [Example 15d] and stop.
Response given: 1500

Challenge: Specify IC50 for Nc1ncc(-c2ccnc(NCCc3c[nH]cn3)n2)c(CC2CC2)n1 [Example 15t] and stop.
Response given: 187

---

Target: recombinant human Vps34 (Homo sapiens)
Experiment: Vps34 KinaseGlo assay
Assay type: biochemical
Details: KinaseGlo luminescence ATP detection; PI/OG substrate; 1 μM ATP; room temperature; 8 concentrations, n=2
observable: IC50 (nM)
Answer in nM, number only, no unit symbol.

Challenge: Specify IC50 for Cc1ncc(-c2ccnc(N[C@H]3CC[C@H](O)CC3)n2)c(CC2CC2)n1 [Example 6c] , system recombinant human Vps34 (Homo sapiens).
Response given: 775

Challenge: Specify IC50 for CNc1ncc(-c2ccnc(Nc3ccc(OC)c(OC)c3)n2)c(CC2CC2)n1 [Example 14q] , system recombinant human Vps34 (Homo sapiens).
Response given: 862

Challenge: Specify IC50 for CSc1ncc(-c2ccnc(Nc3ccncc3)n2)c(CC2CC2)n1 [Example 11] , system recombinant human Vps34 (Homo sapiens).
Response given: 106

Challenge: Specify IC50 for CNc1ncc(-c2ccnc(NC3CCOCC3)n2)c(CC2CC2)n1 [Example 14g] , system recombinant human Vps34 (Homo sapiens).
Response given: 398

Challenge: Specify IC50 for Nc1ncc(-c2ccnc(Nc3nncs3)n2)c(CC2CC2)n1 [Example 15i] , system recombinant human Vps34 (Homo sapiens).
Response given: 924

Challenge: Specify IC50 for CN(C)c1cccc(Nc2nccc(-c3cnc(N)nc3CC3CC3)n2)c1 [Example 15y] , system recombinant human Vps34 (Homo sapiens).
Response given: 231

Challenge: Specify IC50 for c1cc(Nc2nccc(-c3cnc(NC4CCCCC4)nc3CC3CC3)n2)ccn1 [Example 12b] , system recombinant human Vps34 (Homo sapiens).
Response given: 570

Challenge: Specify IC50 for CC(C)Nc1ncc(-c2ccnc(Nc3ccncc3)n2)c(CC2CC2)n1 [Example 12a] , system recombinant human Vps34 (Homo sapiens).
Response given: 34.5

Challenge: Specify IC50 for Nc1ncc(-c2ccnc(Nc3ccc4[nH]ccc4c3)n2)c(CC2CC2)n1 [Example 15l] , system recombinant human Vps34 (Homo sapiens).
Response given: 25

Challenge: Specify IC50 for c1cc(Nc2nccc(-c3cnc(NC4CC4)nc3CC3CC3)n2)ccn1 [Example 12c] , system recombinant human Vps34 (Homo sapiens).
Response given: 45.5

Challenge: Specify IC50 for CC(C)(CO)CNc1nccc(-c2cnc(N)nc2CC2CC2)n1 [Example 15g] , system recombinant human Vps34 (Homo sapiens).
Response given: 2230
